Where do the numbers come from? From patent US20250152719A1.

# method.summary: In vitro liver microsomal stability, human
# Type: in vitro ADME
# measurement.conditions: 0.5 mg/mL microsomes, NADPH, 37° C., 1 h
observed.property: Human liver microsome Residuals at 60 min (%)

NC(=O)c1ncc(N2CCCCC2)nc1Nc1ccc(C2CCN(C3Cc4ccc5c(C6CCC(=O)NC6=O)noc5c4C3)CC2)cc1 (stereo not drawn) = 80.0

a. NC(=O)c1ncc(N2CCCCC2)nc1Nc1ccc(C2CCN(CC3CN(c4ccc5c(C6CCC(=O)NC6=O)noc5c4)C3)CC2)cc1 (stereo not drawn)
b. CN1CCN([C@@H]2CCCN(c3cnc(C(N)=O)c(Nc4ccc(C5CCN(C6CN(c7cc8onc(C9CCC(=O)NC9=O)c8c8ccccc78)C6)CC5)cc4)n3)C2)C1=O (stereo partly drawn)
## Input // max by Human liver microsome Residuals at 60 min over [ a , b ] Label of pick, please.
## Output a
(a: 81.0%, b: 53.0%)

====

# Test system: TMD-8 xenograft tumors
# method.summary: In vivo drug efficacy, TMD-8 mouse subcutaneous xenograft tumors
# Design: species or system NOD-SCID mice
# measurement.conditions: 30 mg/kg, qd, i.g., 16 days; tumor weight on day 17
TGI d 17 by entry:
Give just the number in %; leave the unit off.

Solved cases below.
NC(=O)c1ncc(N2CCCCC2)nc1Nc1ccc(N2CCC(CN3CCc4ccc5c(C6CCC(=O)NC6=O)noc5c4CC3)CC2)cc1 (centres unmarked) [Compound 72] = 97.9
NC(=O)c1ncc(N2CCCCC2)nc1Nc1ccc(C2CCN(C3Cc4ccc5c(C6CCC(=O)NC6=O)noc5c4C3)CC2)cc1 (centres unmarked) [Compound 69] = 96.4
NC(=O)c1ncc(N2CCCCC2)nc1Nc1ccc(C2CCN(C[C@@H]3CC[C@@H](n4ccc5c6c(C7CCC(=O)NC7=O)noc6ccc54)C3)CC2)cc1 (some centres unmarked) [Compound 104] = 96.0
CN1CCN([C@@H]2CCCN(c3cnc(C(N)=O)c(Nc4ccc(C5CCN(C6CN(c7ccc8c(C9CCC(=O)NC9=O)noc8c7)C6)CC5)cc4)n3)C2)C1=O (some centres unmarked) [Compound 10] = 97.5

## Input So what TGI d 17 did NC(=O)c1ncc(N2CCCCC2)nc1Nc1ccc(C2CCN(C[C@@H]3CC[C@H](n4ccc5c6c(C7CCC(=O)NC7=O)noc6ccc54)C3)CC2)cc1 (some centres unmarked) [Compound 105] get with TMD-8 xenograft tumors?
## Output 95.4

====

# method.summary: In vitro liver microsomal stability, human
# Type: in vitro ADME
# measurement.conditions: 0.5 mg/mL microsomes, NADPH, 37° C., 1 h
observed.property: Human liver microsome Residuals at 60 min (%)

CN1CCN([C@@H]2CCCN(c3cnc(C(N)=O)c(Nc4ccc(C5CCC(N6Cc7ccc8c(C9CCC(=O)NC9=O)noc8c7C6)CC5)cc4)n3)C2)C1=O (stereo partly drawn) = 55.0

1. CN1CCN([C@@H]2CCCN(c3cnc(C(N)=O)c(Nc4ccc(N5CCC(CN6CCc7ccc8c(C9CCC(=O)NC9=O)noc8c7CC6)CC5)cc4)n3)C2)C1=O (stereo partly drawn)
2. NC(=O)c1ncc(N2CCCCC2)nc1Nc1ccc(N2CCC(CN3CCc4ccc5c(C6CCC(=O)NC6=O)noc5c4CC3)CC2)cc1 (stereo not drawn)
## Input Consider entries 1 and 2 . Which has the numerically lower Human liver microsome Residuals at 60 min? Label of pick, please.
## Output 1
(1: 56.0%, 2: 94.0%)
